# Test system: human hepatoma Huh-7 cell line harboring a HCV replicon
# assay_procedure: HCV replicon assay (inhibition of viral replication, luciferase readout)
# Format: cell-based
# condition_description: Hepatitis C virus, 72 h, Huh-7 HCV replicon cells, 3 days incubation
reported_endpoint: inhibition at 2 µM (%)
Please state the figure in %; there is no need to write the unit.

Use the examples below as a reference point.
[
  {
    "compound": "CC(C)(C)C#Cc1cc(N(C(=O)[C@H]2CC[C@H](C)CC2)[C@H]2CC[C@H](O[C@H]3COC[C@H]3O)CC2)c(C(=O)O)s1",
    "reported_endpoint": "inhibition at 2 µM",
    "reported_measurement": 100
  },
  {
    "compound": "Cn1nnnc1[S+]([O-])[C@H]1CC[C@H](N(c2cc(C#CC(C)(C)C)sc2C(=O)O)C(=O)[C@H]2CC[C@H](C)CC2)CC1 (stereo partly drawn)",
    "reported_endpoint": "inhibition at 2 µM",
    "reported_measurement": 99.8
  },
  {
    "compound": "CCn1ccnc1S[C@H]1CC[C@H](N(c2cc(C#CC(C)(C)C)sc2C(=O)O)C(=O)[C@H]2CC[C@H](C)CC2)CC1",
    "reported_endpoint": "inhibition at 2 µM",
    "reported_measurement": 99.4
  },
  {
    "compound": "CC(C)(C#Cc1cc(N(C(=O)[C@H]2CC[C@H](C)CC2)[C@H]2CC[C@H](Oc3ccc(O)nn3)CC2)c(C(=O)O)s1)C(F)(F)F",
    "reported_endpoint": "inhibition at 2 µM",
    "reported_measurement": 100
  },
  {
    "compound": "C[C@H]1CC[C@H](C(=O)N(c2cc(C#CC3(C(F)(F)F)CC3)sc2C(=O)O)[C@H]2CC[C@H](OC3CCOC3)CC2)CC1 (stereo partly drawn)",
    "reported_endpoint": "inhibition at 2 µM",
    "reported_measurement": 100
  }
]

Lookup: Which inhibition at 2 µM reading was recorded for the compound "CC(C)(C)C#Cc1cc(N(C(=O)[C@H]2CC[C@H](C)CC2)[C@H]2CC[C@H](O[C@H]3COC[C@@H]3O)CC2)c(C(=O)O)s1" ?
Found: 99.7

---

# System: human hepatoma Huh-7 cell line harboring a HCV replicon
# assay_procedure: HCV replicon assay (inhibition of viral replication, luciferase readout)
# Assay type: cell-based
# condition_description: Hepatitis C virus, 72 h, Huh-7 HCV replicon cells, 3 days incubation
# Protocol: The anti-HCV activity of the compounds of this invention was tested in a human hepatoma Huh-7 cell line harboring a HCV replicon. The assay comprised the following steps: Step 1: Compound Preparation and Serial Dilution. […] The percent cytotoxicity was determined by calcein AM conversion to fluorescent product. […] The percent anti-HCV replication activity was determined by the luminescence signal from the testing well compared to DMSO control wells. […]
reported_endpoint: inhibition at 2 µM (%)
Report as a plain number; the unit % is understood.

Recorded results for 4 compounds are shown here.
[
  {
    "compound": "CC(C)(C)C#Cc1cc(N(C(=O)[C@H]2CC[C@H](C)CC2)[C@H]2CC[C@H](Oc3cc(N4CCCC4)ncn3)CC2)c(C(=O)O)s1",
    "unit_text": "%",
    "inhibition at 2 µM": 99.6
  },
  {
    "compound": "CC(C)(C)C#Cc1cc(N(C(=O)[C@H]2CC[C@H](C)CC2)[C@H]2CC[C@H](Oc3cccc(S(C)(=O)=O)n3)CC2)c(C(=O)O)s1",
    "unit_text": "%",
    "inhibition at 2 µM": 99.9
  },
  {
    "compound": "Cc1nc(S(=O)(=O)N2CC[C@H](N(c3cc(C#CC(C)(C)C)sc3C(=O)O)C(=O)[C@H]3CC[C@H](C)CC3)C2)cn1C",
    "unit_text": "%",
    "inhibition at 2 µM": 99.3
  },
  {
    "compound": "CC(C)(C)C#Cc1cc(N(C(=O)[C@H]2CC[C@H](C)CC2)[C@H]2CC[C@H](OC3CCOC3)CC2)c(C(=O)O)s1 (stereo partly drawn)",
    "unit_text": "%",
    "inhibition at 2 µM": 99.9
  }
]

Lookup: What value of inhibition at 2 µM on human hepatoma Huh-7 cell line harboring a HCV replicon does CC1=CCC(C(=O)N(c2cc(C#CC(C)(C)C)sc2C(=O)O)[C@H]2CC[C@H](O[C@H]3CCOC3)CC2)[C@@H](C)C1 (stereo partly drawn) [Compound 301] have?
Found: 99.8

Lookup: Query inhibition at 2 µM on human hepatoma Huh-7 cell line harboring a HCV replicon for "CC(C)(C)C#Cc1cc(N(C(=O)[C@H]2CC[C@H](C)CC2)[C@H]2CC[C@@H](Oc3ccc(Cl)nn3)CC2)c(C(=O)O)s1"
Found: 99.6

Lookup: Lab request: please report inhibition at 2 µM under test system human hepatoma Huh-7 cell line harboring a HCV replicon for "CC(C)(C)C#Cc1cc(N(C(=O)[C@H]2CC[C@H](C)CC2)C2CCN(S(=O)(=O)c3cnc(=O)[nH]c3)CC2)c(C(=O)O)s1"
Found: 63.8

---

# System: human hepatoma Huh-7 cell line harboring a HCV replicon
# assay_procedure: HCV replicon assay (inhibition of viral replication, luciferase readout)
# Assay type: cell-based
# condition_description: Hepatitis C virus, 72 h, Huh-7 HCV replicon cells, 3 days incubation
Recorded measurements of inhibition at 2 µM, one per entry
Give the value in % but do not write % after it.

Examples with answers:
[
  {
    "compound": "CC1CCC(C(=O)N(c2cc(C#CC(C)(C)C)sc2C(=O)O)[C@H]2CC[C@H](Oc3cncc(CN(C)C)c3)CC2)CC1 (stereo partly shown)",
    "unit_text": "%",
    "reported_measurement": 100
  },
  {
    "compound": "Cc1nc(S(=O)(=O)N2CCC(N(c3cc(C#CC(C)(C)C)sc3C(=O)O)C(=O)[C@H]3CC[C@H](C)CC3)CC2)cn1C",
    "unit_text": "%",
    "reported_measurement": 100
  },
  {
    "compound": "C[C@@H]1CC[C@@H](C(=O)N(c2cc(C#CC(C)(C)C)sc2C(=O)O)[C@H]2CC[C@H](OC3CCOC3)CC2)[C@@H](O)C1 (stereo partly shown)",
    "unit_text": "%",
    "reported_measurement": 100
  }
]

Lookup: inhibition at 2 µM for "CC(C)(C)C#Cc1cc(N(C(=O)[C@H]2CC[C@H](C)CC2)[C@H]2CC[C@H](Oc3ccc4nccn4n3)CC2)c(C(=O)O)s1" ?
Found: 99.8

---

# System: human hepatoma Huh-7 cell line harboring a HCV replicon
# assay_procedure: HCV replicon assay (inhibition of viral replication, luciferase readout)
# Type: cell-based
# condition_description: Hepatitis C virus, 72 h, Huh-7 HCV replicon cells, 3 days incubation
inhibition at 2 µM values by entry
Value expressed in %; do not type the unit.

[
  {
    "compound": "CC(C)(C)C#Cc1cc(N(C(=O)[C@H]2CC[C@H](C)CC2)[C@H]2CC[C@H](Oc3cccnc3)CC2)c(C(=O)O)s1",
    "inhibition at 2 µM / %": 99.8
  },
  {
    "compound": "CC(C)(C)C#Cc1cc(N(C(=O)[C@H]2CC[C@H](C)CC2)[C@H]2CC[C@H](Oc3cccc(C#N)n3)CC2)c(C(=O)O)s1",
    "inhibition at 2 µM / %": 99.3
  }
]

// next entry
Lookup: Tell me reported inhibition at 2 µM for CN(C)Cc1csc(OC2CCC(N(c3cc(C#CC(C)(C)C)sc3C(=O)O)C(=O)[C@H]3CC[C@H](C)CC3)CC2)n1 (stereo partly drawn) , tested with human hepatoma Huh-7 cell line harboring a HCV replicon.
Found: 100

---

The following compounds are shown together with reported inhibition at 2 µM values.
# Test system: human hepatoma Huh-7 cell line harboring a HCV replicon
# assay_procedure: HCV replicon assay (inhibition of viral replication, luciferase readout)
# Assay type: cell-based
# condition_description: Hepatitis C virus, 72 h, Huh-7 HCV replicon cells, 3 days incubation
Give just the numeric value; % need not be written.

Previously resolved entries follow.
[
  {
    "compound": "CC(C)(C)C#Cc1cc(N(C(=O)[C@H]2CC[C@H](C)CC2)[C@H]2C[C@H](Oc3ncccn3)C2)c(C(=O)O)s1 [Compound 23]",
    "inhibition at 2 µM [%]": 99.5
  },
  {
    "compound": "CC(C)(C)C#Cc1cc(N(C(=O)[C@H]2CC[C@H](C)CC2)[C@H]2CC[C@H](O[C@H]3CCOC3)CC2)c(C(=O)O)s1 [Compound 331]",
    "inhibition at 2 µM [%]": 100
  },
  {
    "compound": "CC(C)(C)C#Cc1cc(N(C(=O)[C@H]2CC[C@H](C)CC2)[C@H]2CC[C@H](Sc3ncccn3)CC2)c(C(=O)O)s1 [Compound 100]",
    "inhibition at 2 µM [%]": 99.9
  },
  {
    "compound": "CC1CCC(C(=O)N(CCOc2ccccn2)c2cc(C#CC(C)(C)C)sc2C(=O)O)CC1 (stereo not drawn) [Compound 139]",
    "inhibition at 2 µM [%]": 96.4
  },
  {
    "compound": "CC1=CCC(C(=O)N(c2cc(C#CC(C)(C)C)sc2C(=O)O)[C@H]2CC[C@H](O[C@@H]3CCOC3)CC2)[C@@H](C)C1 (single isomer, unassigned) [Compound 307]",
    "inhibition at 2 µM [%]": 100
  }
]

Next item in the queue.
Lookup: // lookup inhibition at 2 µM for CC(C)(C)C#Cc1cc(N(C(=O)[C@H]2CC[C@H](C)CC2)[C@H]2C[C@@H](Oc3ccccn3)C2)c(C(=O)O)s1 [Compound 146]
Found: 99.2
